- Study System: CRHR2 (Homo sapiens)
- Sequence (Q13324 whole entry): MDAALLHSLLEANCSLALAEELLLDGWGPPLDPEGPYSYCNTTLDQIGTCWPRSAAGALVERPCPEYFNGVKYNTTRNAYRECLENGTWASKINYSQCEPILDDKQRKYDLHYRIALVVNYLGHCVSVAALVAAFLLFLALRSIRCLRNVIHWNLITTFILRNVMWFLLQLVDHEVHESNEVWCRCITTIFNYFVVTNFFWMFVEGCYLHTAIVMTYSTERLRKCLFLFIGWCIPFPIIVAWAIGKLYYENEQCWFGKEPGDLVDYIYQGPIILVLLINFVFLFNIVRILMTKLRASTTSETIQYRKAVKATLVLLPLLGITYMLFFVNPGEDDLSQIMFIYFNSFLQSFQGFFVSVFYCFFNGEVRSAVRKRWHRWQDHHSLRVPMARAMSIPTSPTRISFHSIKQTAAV
- Assay Summary: CRHR2 antagonistic activity (inhibitory activity against CRHR2)
pIC50: −log10 of the molar value.
Measured Parameter: pIC50

Cc1ncc(Cl)cc1C(=O)N[C@H]1CC[C@H](Cn2c(=O)n(-c3cccnc3)c3ccccc32)CC1	6.55

1. Cc1ncc(Cl)cc1C(=O)N[C@H]1CC[C@H](Cn2c(=O)n(-c3ccccc3)c3ccccc32)CC1
2. Cc1ncc(Cl)cc1C(=O)N[C@H]1CC[C@H](Cn2c(=O)n(Cc3ccccc3)c3ccccc32)CC1
Ask | // returns 1 or 2 , whichever has the lower pIC50 Write down the label attached to your selection.
Reply | 1
